Source of measurements: patent US5902812A

Collected inhibition at 20 µM values appear next to each entry.
testedSystem: PAI-1 (Homo sapiens)
Sequence (P05121 24-402): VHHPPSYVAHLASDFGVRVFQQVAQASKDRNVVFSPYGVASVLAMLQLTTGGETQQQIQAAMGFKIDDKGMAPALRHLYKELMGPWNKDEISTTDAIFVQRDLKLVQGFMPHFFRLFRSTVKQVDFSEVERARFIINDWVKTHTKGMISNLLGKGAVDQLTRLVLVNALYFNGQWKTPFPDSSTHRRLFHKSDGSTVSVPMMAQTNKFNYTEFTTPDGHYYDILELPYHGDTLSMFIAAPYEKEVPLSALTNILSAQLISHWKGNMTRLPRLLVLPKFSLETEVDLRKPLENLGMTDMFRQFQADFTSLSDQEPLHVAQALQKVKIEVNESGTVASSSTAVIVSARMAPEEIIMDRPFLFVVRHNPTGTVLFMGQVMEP
testDetails: biochemical
appliedConditions: 20 μM (third part of Table 1); read-out: Degree of inhibition in PAI chromogenic substrate assay
Counter-ions that a name gives are not always drawn.
# number only, unit % dropped from output

Worked examples, 2 compounds total:
compound	unitInfo	resultValue
CN(C)CCCOc1ccc(/C=c2\[nH]c(=O)/c(=C/c3ccc(Cl)c([N+](=O)[O-])c3)[nH]c2=O)cc1 [Compound 5398]	%	54
CN(C)CCCOc1ccc(/C=c2\[nH]c(=O)/c(=C/c3ccc(N(C)C)cc3)[nH]c2=O)cc1 [Compound 5068.HCl]	%	81

Entry under review: CN(C)CCCOc1ccc(/C=c2\[nH]c(=O)/c(=C/c3ccc(C(=O)NCCc4ccccc4)cc3)[nH]c2=O)cc1 [Compound 5345] . Reported inhibition at 20 µM? 39

Entry under review: CN(C)CCCOc1ccc(/C=c2\[nH]c(=O)/c(=C/c3ccc(C(=O)NCCCc4ccccc4)cc3)[nH]c2=O)cc1 [Compound 5346] . Reported inhibition at 20 µM? 15

Entry under review: CN(C)CCCOc1ccc(/C=c2\[nH]c(=O)/c(=C/c3ccc(C(C)(C)C)cc3)[nH]c2=O)cc1 [Compound 5238] . Reported inhibition at 20 µM? 3

* * *

testedSystem: PAI-1 (Homo sapiens)
testDetails: biochemical
appliedConditions: 50 μM; read-out: Degree of inhibition in PAI chromogenic substrate assay
Decision: inhibition at 50 µM compared against 40%; not below it gives 1, below it gives 0.

Look over these answered cases.
compound	testedSystem	classLabel
CCCCCCC(=O)Oc1ccc(/C=c2\[nH]c(=O)/c(=C/c3ccc(OC)cc3)[nH]c2=O)cc1 [Compound 1887]	PAI-1 (Homo sapiens)	1
CCCCCCOc1ccc(/C=c2\[nH]c(=O)/c(=C/c3ccc(OC)cc3)[nH]c2=O)cc1 [Compound 1907]	PAI-1 (Homo sapiens)	1
CCCCOc1ccc(/C=c2\[nH]c(=O)/c(=C/c3ccc(OCCCN(C)C)cc3)[nH]c2=O)cc1 [Compound 1920]	PAI-1 (Homo sapiens)	1
CN(C)CCOc1cccc(/C=c2\[nH]c(=O)/c(=C/c3cccc(OCCN(C)C)c3)[nH]c2=O)c1 [Compound 1947]	PAI-1 (Homo sapiens)	0
COc1ccc(/C=c2\[nH]c(=O)/c(=C/c3ccc(OC(=O)CC(C)(C)C)cc3)[nH]c2=O)cc1 [Compound 1885]	PAI-1 (Homo sapiens)	0

Now take the following compound into account.
Determine whether measured inhibition at 50 µM meets or exceeds 40% for CN(C)CCOc1ccc(/C=c2\[nH]c(=O)/c(=C/c3c(Cl)cccc3Cl)[nH]c2=O)cc1 [Compound 1952] 0

* * *

Collected IC50 values appear next to each entry.
testedSystem: UniProt P05121
testDetails: biochemical
appliedConditions: PAI chromogenic substrate assay; read-out: IC50
# number only, unit µM dropped from output

Worked examples, 3 compounds total:
compound	testedSystem	observedProperty	resultValue
CN(C)CCCOc1ccc(/C=c2\[nH]c(=O)/c(=C/c3ccc([N+](=O)[O-])cc3)[nH]c2=O)cc1 [Compound 5230]	UniProt P05121	IC50	0.75
CCCCOc1ccc(/C=c2\[nH]c(=O)/c(=C/c3ccc(OCCCN(C)C)cc3)[nH]c2=O)cc1 [Compound 5250]	UniProt P05121	IC50	14
CN(C)CCCOc1ccc(/C=c2\[nH]c(=O)/c(=C/c3cccc([N+](=O)[O-])c3)[nH]c2=O)cc1 [Compound 5231]	UniProt P05121	IC50	1.5

Entry under review: CN(C)CCCOc1ccc(/C=c2\[nH]c(=O)/c(=C/c3ccc(C(N)=O)cc3)[nH]c2=O)cc1 [Compound 5254] . Reported IC50? 35

Entry under review: Cc1ccc(/C=c2\[nH]c(=O)/c(=C/c3ccc(OCCCN(C)C)cc3)[nH]c2=O)cc1 [Compound 5235] . Reported IC50? 6

Entry under review: CN(C)CCCOc1ccc(/C=c2\[nH]c(=O)/c(=C/c3ccc(Cl)c(Cl)c3)[nH]c2=O)cc1 [Compound 5236] . Reported IC50? 2.8

Entry under review: CN(C)CCCOc1ccc(/C=c2\[nH]c(=O)/c(=C/c3ccccc3[N+](=O)[O-])[nH]c2=O)cc1 [Compound 5210] . Reported IC50? 67

Entry under review: CN(C)CCCOc1ccc(/C=c2\[nH]c(=O)/c(=C/c3ccc(Cl)c([N+](=O)[O-])c3)[nH]c2=O)cc1 [Compound 5398] . Reported IC50? 4.2

Entry under review: CN(C)CCCOc1ccc(/C=c2\[nH]c(=O)/c(=C/c3cccc(Cl)c3)[nH]c2=O)cc1 [Compound 5240] . Reported IC50? 6.5

Entry under review: CN(C)CCCOc1ccc(/C=c2\[nH]c(=O)/c(=C/c3ccc4c(c3)OCO4)[nH]c2=O)cc1 [Compound 5229] . Reported IC50? 3.7

Entry under review: CN(C)CCCOc1ccc(/C=c2\[nH]c(=O)/c(=C/c3ccc(F)cc3)[nH]c2=O)cc1 [Compound 5365] . Reported IC50? 6.5
